Biological target: C-Raf kinase (SEQ. ID NO: 3) (Homo sapiens (Human), UniProt P04049, Y340D/Y341D)
Sequence (P04049 307-648 Y340D/Y341D): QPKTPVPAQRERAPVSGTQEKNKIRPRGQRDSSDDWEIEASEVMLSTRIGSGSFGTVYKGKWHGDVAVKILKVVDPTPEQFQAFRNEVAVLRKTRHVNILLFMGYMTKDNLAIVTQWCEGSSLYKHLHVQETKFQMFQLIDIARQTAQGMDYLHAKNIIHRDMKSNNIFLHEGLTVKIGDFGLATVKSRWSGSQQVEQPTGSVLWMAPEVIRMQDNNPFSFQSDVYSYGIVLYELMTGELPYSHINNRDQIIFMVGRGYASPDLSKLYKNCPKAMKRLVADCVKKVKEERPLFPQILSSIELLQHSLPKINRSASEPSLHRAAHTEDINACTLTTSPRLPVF
Assay: Biochemical Assay for C-Raf (1)
Conditions: Table J, assay version (1); read-out: CRAF (1) IC50
pIC50: −log10 of the molar value.
Recorded pIC50 by entry

The examples below pair each entry with its known result.
1. Cc1cc(F)c(NC(=O)c2ccnc(C(C)(C)F)c2)cc1-c1ccnc(-c2ccnc(NC(=O)C3CC3)c2)c1 [Example 300]    ≥ 7.00
2. CNC(=O)c1cc(-c2cncc(-c3cc(NC(=O)c4ccnc(C(C)(C)C#N)c4)ccc3C)c2)ncn1 [Example 235]    ≥ 7.00
3. CC(=O)Nc1cc(-c2cncc(-c3cc(NC(=O)c4ccnc(C(F)(F)F)c4)ccc3C)n2)ccn1 [Example 29]    ≥ 7.00

Then this compound:
Incoming: Identify the reported pIC50 for the following entry. Cc1ccc(NC(=O)c2ccnc(C(C)(C)C#N)c2)cc1-c1cc(-c2cc(NC(=O)C3CC3)ncn2)cc(C2CC2)c1 [Example 216]
Outgoing: 6.30 to 7.00

###

Measured IC50 values are reported for all entries that follow.
Target: C-Raf kinase (SEQ. ID NO: 3) (Homo sapiens (Human), UniProt P04049, Y340D/Y341D)
Assay: Biochemical Assay for C-Raf (1)
Settings: Table J, assay version (1); read-out: CRAF (1) IC50

Recorded IC50, per entry:
1) Cc1ncc(NC(=O)C2CCOCC2)cc1-c1ccnc(-c2ccnc(NC(=O)C3CC3)c2)n1    1000 to 10000 nM
2) COC(C)(C)c1cc(C(=O)Nc2ccc(C)c(-c3ccnc(-c4ccnc(NC(=O)C5CC5)c4)n3)c2)ccn1    ≤ 100 nM
3) Cc1ncc(NC(=O)c2ccnc(C3CC3)c2)cc1-c1cccc(-c2ncnc3[nH]ncc23)c1    ≤ 100 nM
4) CC(=O)Nc1cc(-c2cc(-c3cc(NC(=O)c4ccnc(C(F)(F)F)c4)ccc3C)cc(=O)n2C)ccn1    ≤ 100 nM
5) Cc1ccc(NC(=O)c2ccnc(C(F)F)c2)cc1-c1cncc(-c2ccnc(NC(=O)C3CC3)c2)n1    ≤ 100 nM
6) Cc1ncc(NC(=O)c2ccnc(C3CC3)c2)cc1-c1cccc(-c2ccnc(NC(=O)C3CC3)c2)n1    ≤ 100 nM
7) CNC(=O)c1cc(-c2cc(-c3cc(NC(=O)c4ccnc(C(F)(F)F)c4)ccc3C)cc(C3CC3)n2)ccn1    100 to 500 nM
8) CC(=O)Nc1cc(-c2nccc(-c3cc(NC(=O)c4cnnc(C5CC5)c4)ccc3C)n2)ccn1    ≤ 100 nM
9) Cc1cc(C(=O)Nc2cnc(C)c(-c3ccnc(-c4ccnc(NC(=O)C5CC5)c4)n3)c2)ccn1    ≤ 100 nM
10) CNC(=O)c1cc(-c2cnnc(-c3cc(NC(=O)c4ccnc(C5CC5)c4)ccc3C)c2)ccn1    ≤ 100 nM

Incoming: Answer with reported IC50 of Cc1ccc(NC(=O)c2ccnc(C(F)(F)F)c2)cc1-c1ccnc(-c2ccnc(N)c2)c1
Outgoing: ≤ 100 nM

Incoming: Check the records and state IC50 for CC(=O)Nc1cc(-c2cc(-c3cc(NC(=O)c4ccnc(C(C)(C)C#N)c4)ccc3C)ccn2)ccn1
Outgoing: ≤ 100 nM

Incoming: Complete the entry with IC50 for COC1(C(=O)Nc2cc(-c3cccc(-c4cc(NC(=O)c5ccnc(C(C)(C)C#N)c5)ccc4C)c3)ncn2)CC1
Outgoing: 100 to 500 nM

Incoming: Look up IC50 of Cc1ccc(NC(=O)c2ccnc(C(C)(C)C#N)c2)cc1-c1cccc(-c2cc(NC(=O)C3(C)CC3)ncn2)c1 and report it.
Outgoing: 100 to 500 nM

Incoming: Quick one: give measured IC50 for COC(=O)Nc1cc(-c2cc(-c3cc(NC(=O)c4ccnc(C(F)(F)F)c4)cnc3C)ccn2)ccn1
Outgoing: ≤ 100 nM

###

System: WM3928 cells
Experiment: WM3928 Cell Proliferation Assay (1)
Type: cell-based
pIC50: −log10 of the molar value.
test_readout: pIC50

Field: example entries. Status: answers known.
1) Cc1ccc(NC(=O)c2ccnc(C(F)(F)F)c2)cc1-c1cncc(-c2cc(NC(=O)C3CC3)ncn2)c1    ≥ 7.00
2) CC(=O)Nc1cc(-c2cc(-c3cc(NC(=O)c4ccnc(C(F)(F)F)c4)ccc3C)cc(C)n2)ccn1    ≥ 7.00
3) Cc1cc(F)c(NC(=O)c2ccnc(C(C)(C)F)c2)cc1-c1ccnc(-c2ccnc(NC(=O)C3CC3)c2)c1    ≥ 7.00
4) CNC(=O)c1cc(-c2cnnc(-c3cc(NC(=O)c4ccnc(C(C)(C)OC)c4)ccc3C)c2)ccn1    5.00 to 6.00
5) Cc1ncc(NC(=O)c2ccnc(C(C)(C)C#N)c2)cc1-c1ccnc(-c2ccnc(NC(=O)C3CC3)c2)c1    ≥ 7.00

Incoming: Give me measured pIC50, please, for this molecule: CNC(=O)c1cc(-c2cc(-c3cc(NC(=O)c4ccnc(C(C)(C)C#N)c4)ccc3F)ccn2)ccn1
Outgoing: 6.30 to 7.00

Incoming: Report pIC50, nothing else, for this molecule: Cc1ccc(NC(=O)c2cc(CN(C)C)cc(C(F)(F)F)c2)cc1-c1cncc(-c2ccnc(NC(=O)C3CC3)c2)n1
Outgoing: ≥ 7.00

Incoming: Tell me its pIC50 given CNC(=O)c1cc(-c2nccc(-c3cc(NC(=O)c4ccnc(C5(C#N)CC5)c4)ccc3C)n2)ccn1 as the entry.
Outgoing: ≥ 7.00

###

Reported IC50 is given for each of the following compounds.
Molecular target: C-Raf kinase (SEQ. ID NO: 3) (Homo sapiens (Human), UniProt P04049, Y340D/Y341D)
Assay: Biochemical Assay for C-Raf (1)
Conditions: Table J, assay version (1); read-out: CRAF (1) IC50
Description: Biochemical Assay for C-Raf (1) Activity of C-Raf kinase (SEQ. ID NO: 3) was determined spectroscopically using a coupled pyruvate kinase/lactate dehydrogenase assay that continuously monitors the ATP hydrolysis-dependent oxidation of NADH (e.g., Schindler et al., Science, 2000, 289, 1938-1942). […] Inhibition of C-Raf was measured by adding serial diluted test compound (final assay concentration of 1% DMSO). […] The reaction rate was calculated using the 4 to 5 h time frame. […]

Field: example entries. Status: answers known.
1. CC(=O)Nc1cc(-c2nccc(-c3cc(NC(=O)c4ccnc(C(C)(C)C#N)c4)ccc3C)n2)ccn1    ≤ 0.1 µM
2. CC(=O)Nc1cc(-c2cc(-c3cc(NC(=O)c4cccc(C)c4)ccc3C)ccn2)ccn1    ≤ 0.1 µM
3. Cc1ccc(NC(=O)c2ccnc(C(C)(C)C#N)c2)cc1-c1cc(-c2ccnc(NC(=O)C3CC3)c2)cnn1    ≤ 0.1 µM

Incoming: Report IC50 for CNC(=O)c1cc(-c2cc(-c3cc(C(=O)Nc4ccnc(C(C)(C)C#N)c4)ccc3C)ccn2)ccn1
Outgoing: 0.1 to 0.5 µM

Incoming: Return reported IC50. Input compound: COC(C)(C)C(=O)Nc1cc(-c2cccc(-c3cc(NC(=O)c4ccnc(C(C)(C)C#N)c4)cnc3C)c2)ncn1
Outgoing: 0.5 to 1 µM

###

Biological target: B-Raf (V600E) (SEQ. ID NO: 4) kinase (Homo sapiens (Human), UniProt P15056, V600E)
Sequence (P15056 416-766 V600E): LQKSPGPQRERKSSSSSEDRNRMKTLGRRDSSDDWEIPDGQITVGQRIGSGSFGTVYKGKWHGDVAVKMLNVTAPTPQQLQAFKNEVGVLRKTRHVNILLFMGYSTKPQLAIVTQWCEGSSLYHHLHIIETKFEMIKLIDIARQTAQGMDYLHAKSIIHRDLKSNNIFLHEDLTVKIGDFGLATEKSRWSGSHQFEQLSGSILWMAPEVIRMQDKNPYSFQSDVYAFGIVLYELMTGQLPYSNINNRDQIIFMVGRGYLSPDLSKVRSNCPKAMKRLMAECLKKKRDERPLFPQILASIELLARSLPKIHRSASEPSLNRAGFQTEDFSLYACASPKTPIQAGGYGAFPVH
Experiment: Biochemical Assay for B-Raf (V600E) (2)
Conditions: Table J, BRAF V600E, biochemical assay (2); read-out: BRAF VE (2)
Procedure: Biochemical Assay for B-Raf (V600E) (2) Activity of B-Raf (V600E) (SEQ. ID NO: 4) kinase was determined spectroscopically using a coupled pyruvate kinase/lactate dehydrogenase assay that continuously monitors the ATP hydrolysis-dependent oxidation of NADH (e.g., Schindler et al., Science, 2000, 289, 1938-1942). […] Inhibition of B-Raf (V600E) was measured by adding serial diluted test compound (final assay concentration of 1% DMSO). […] The reaction rate was calculated using the 3 to 4 h time frame. […]
test_readout: IC50

Here's what some known entries look like.
1. CNC(=O)c1cc(-c2cc(-c3cc(NC(=O)c4ccnc(C(C)(C)F)c4)ccc3C)cnn2)ccn1 [Example 473]    ≤ 100 nM
2. CNC(=O)c1cc(-c2cc(-c3cc(NC(=O)c4ccnc(C(C)(C)F)n4)ccc3C)ccn2)ccn1 [Example 494]    ≤ 100 nM

Incoming: Report IC50, nothing else, for this molecule: Cc1ccc(NC(=O)c2ccc(C(F)(F)F)cc2)cc1-c1ccnc(-c2ccnc(NC(=O)C3CC3)c2)c1 [Example 501]
Outgoing: 100 to 500 nM

Incoming: Give the measured IC50 for CNC(=O)c1cc(-c2cc(-c3cc(NC(=O)c4cnnc(C(F)(F)F)c4)ccc3C)ccn2)ccn1 [Example 477]
Outgoing: 100 to 500 nM

###

Biological target: B-Raf kinase (SEQ. ID NO: 2) (Homo sapiens (Human))
Sequence (P15056 416-766): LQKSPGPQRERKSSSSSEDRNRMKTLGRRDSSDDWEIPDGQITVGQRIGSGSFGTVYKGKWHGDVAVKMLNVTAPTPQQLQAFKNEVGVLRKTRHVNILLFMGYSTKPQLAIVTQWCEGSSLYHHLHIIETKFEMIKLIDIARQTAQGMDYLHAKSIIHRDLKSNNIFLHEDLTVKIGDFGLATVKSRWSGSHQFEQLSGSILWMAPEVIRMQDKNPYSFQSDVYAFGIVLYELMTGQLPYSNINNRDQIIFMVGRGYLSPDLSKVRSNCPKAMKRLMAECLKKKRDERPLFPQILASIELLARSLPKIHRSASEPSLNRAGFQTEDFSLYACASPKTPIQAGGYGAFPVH
Experiment: Biochemical Assay for B-Raf (2)
Details: Table J, biochemical assay (2); read-out: BRAF (2)
test_readout: IC50

1. CNC(=O)c1cc(-c2cc(-c3cc(NC(=O)c4cnnc(C(C)(F)F)c4)ccc3C)ccn2)ccn1    ≤ 0.1 µM
2. [2H]C([2H])([2H])NC(=O)c1cc(-c2cc(-c3cc(NC(=O)c4ccnc(C(C)(C)F)c4)ccc3C)cc(C)n2)ccn1    0.1 to 0.5 µM
3. CNC(=O)c1cc(-c2cc(-c3cc(NC(=O)c4ccnc(C(C)(C)F)c4)ccc3C)c(C)cn2)ccn1    0.5 to 1 µM
4. Cc1ccc(NC(=O)c2ccnc(C3CC3)c2)cc1-c1ccnc(-c2ccnc(NC(=O)C3CC3)c2)c1    ≤ 0.1 µM
5. CNC(=O)c1cc(-c2cncc(-c3cc(NC(=O)c4ccnc(C(C)C)c4)ccc3C)c2)ncn1    ≤ 0.1 µM

Incoming: Given CNC(=O)c1cc(-c2cc(-c3cc(NC(=O)c4ccnc(C(C)(C)F)c4)ccc3C)cc(OCCO)n2)ccn1 , respond with its IC50.
Outgoing: 0.1 to 0.5 µM

Incoming: Return reported IC50. Input compound: Cc1ccc(NC(=O)c2ccc(C(F)(F)F)cc2)cc1-c1ccnc(-c2ccnc(NC(=O)C3CC3)c2)c1
Outgoing: ≤ 0.1 µM

Incoming: Output measured IC50 for this item: CNC(=O)c1cc(-c2cc(-c3cc(NC(=O)c4ccnc(C5(F)CC5)c4)ccc3C)ccn2)ccn1
Outgoing: ≤ 0.1 µM

Incoming: Answer with reported IC50 of Cc1ccc(NC(=O)c2cn(C)nc2C(F)(F)F)cc1-c1cncc(-c2ccnc(NC(=O)C3CC3)c2)c1
Outgoing: ≤ 0.1 µM

Incoming: Recall and state the measured IC50 for CNC(=O)c1cc(-c2cc(-c3cc(NC(=O)c4ccnc(C(C)(C)F)c4)c(F)cc3C)ccn2)ccn1 .
Outgoing: 0.1 to 0.5 µM

Incoming: Name the recorded IC50 of the compound listed here: Cc1ccc(NC(=O)c2ccnc(C(C)C)c2)cc1-c1ccnc(-c2ccnc(NC(=O)C3CC3)c2)c1
Outgoing: ≤ 0.1 µM

Incoming: Give the reported IC50 for this compound. CNC(=O)c1cc(-c2cc(-c3cc(NC(=O)c4ccnc(C(C)(C)F)c4)cc(F)c3F)ccn2)ccn1
Outgoing: 0.1 to 0.5 µM

Incoming: Give IC50 for Cc1ncc(NC(=O)c2ccnc(C(C)(C)F)c2)cc1-c1ccnc(-c2ccnc(NC(=O)C3CC3)c2)c1
Outgoing: ≤ 0.1 µM
